Give Ester synthesis activity, Specific activity for every item shown.
target_system: Pseudomonas cepacia lipase PCL (Burkholderia cepacia, UniProt P22088)
Construct: purchased Sigma-Aldrich Co., Ltd
Sequence (P22088 45-364): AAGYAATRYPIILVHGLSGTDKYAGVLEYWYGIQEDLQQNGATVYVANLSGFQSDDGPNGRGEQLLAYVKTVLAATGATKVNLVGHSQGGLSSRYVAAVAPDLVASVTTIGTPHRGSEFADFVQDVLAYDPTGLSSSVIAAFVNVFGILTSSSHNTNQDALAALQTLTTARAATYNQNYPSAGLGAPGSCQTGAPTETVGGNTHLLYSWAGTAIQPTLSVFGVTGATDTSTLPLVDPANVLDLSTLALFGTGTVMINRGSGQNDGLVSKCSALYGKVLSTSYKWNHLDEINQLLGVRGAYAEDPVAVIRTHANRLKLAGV
assay_procedure: Ester synthesis activity of surfactant-treated lyophilized lipase PCL by GC analysis
Format: biochemical
measurement_conditions: surfactant 10 mM, protein 0.2 mg·mL^−1
Method: (2) Determination of Ester Synthesis Activity of the Lipase by GC Analysis Substrate solution A: 48.5 mL of n-octanoic acid is dissolved in 250 mL of n-heptane in a volumetric flask. Substrate solution B: 17.5 mL of absolute ethanol is dissolved in 250 mL of n-heptane in a volumetric flask. Internal standard: 2-hexanol/n-heptane (35 g·L^−1). Standard sample: 10 g of n-octanoate is dissolved in 1000 mL of n-heptane in a volumetric flask. […]
Answers are plain numbers, in U · mg^−1.

[
  {
    "molecule": "CCCCCCCCCCCCO[C@@H]1O[C@H](CO)[C@@H](O[C@H]2O[C@H](CO)[C@@H](O)[C@H](O)[C@H]2O)[C@H](O)[C@H]1O [DDM, n-dodecyl-ß-D-maltopyranoside]",
    "result_number": 55.6
  },
  {
    "molecule": "CCCCCCCCCCCCCC(=O)OCC(O)COP(=O)([O-])OCC[N+](C)(C)C (stereo not drawn) [LPC14]",
    "result_number": 44.6
  },
  {
    "molecule": "CCCCCC(=O)OC[C@H](COP(=O)([O-])OCC[N+](C)(C)C)OC(=O)CCCCC [DiC6PC, 1,2-dihexanoyl lecithin]",
    "result_number": 7.1
  },
  {
    "molecule": "CCCCCCCCCCCCOCCOCCOCCOCCOCCOCCOCCOCCO [C12E8, octaethylene glycol monododecyl ether]",
    "result_number": 4.6
  },
  {
    "molecule": "C[C@H](CCC(=O)NCCC[N+](C)(C)CCCS(=O)(=O)[O-])[C@H]1CC[C@H]2[C@@H]3[C@H](O)C[C@@H]4C[C@H](O)CC[C@]4(C)[C@H]3C[C@H](O)[C@]12C [CHAPS]",
    "result_number": 4.7
  }
]

Attention now turns to another entry.
QUERY: Quick check: Ester synthesis activity, Specific activity of CCCCCCCCCCCCCCCC[N+](C)(C)C.[Br-] [CTAB, hexadecyl trimethyl ammonium bromide] ?
RESULT: 0
